protocol.text: NCI Yeast Anticancer Drug Screen. Data for the mlh1 rad18 strain (AID 175)
run.conditions: S. cerevisiae mlh1 rad18 strain growth inhibition; at 50.0 µM; stronger effect = higher value
About 79,000 compounds went through this panel and 15% of them were active in at least one assay; those are over-represented in the sample as a whole.
assay.metric: growth inhibition (%)
Express it in %; write the number only.

# example entries with known answers
                                   compound  test_value
0  O=P(O)(O)OC1C(OP(=O)(O)O)C(OP(=O)(O)O)C(OP(=O)(O)O)C(OP(=O)(O)O)C1OP(=O)(O)O.[Zn+2] (stereo not given)        -6.2
1           CCN(C(=S)Nc1cccc(OC)c1)c1ccccc1        -6.8
2  CCOc1ccc(/C=C2/C(=O)N(/C=C3/C(=O)Oc4ccccc4C3=O)C(=NC(C)=O)N2C)cc1        2.35
3  O=C1CC2C(O)OC(O)C(C1)N2C(=O)OCC(Cl)(Cl)Cl (stereo not given)        -6.6
4                             O=C1CSC(=O)N1       -41.5
5  CCCCOC(=O)NC(=O)c1cn(CCSCCOC(=O)NCCCCCCNC(=O)OCCSCCn2cc(C(=O)NC(=O)OCCCC)c(=O)[nH]c2=O)c(=O)[nH]c1=O       -15.4
6  COc1cc(NCC(C#N)C#N)ccc1N=Nc1ccc([N+](=O)[O-])cc1        48.9
7                    O=C(O)CCC(=O)CC1CCCCC1        28.2
8  N#Cc1c(-c2ccc(Cl)cc2)cn2c1[nH]c(=O)c1c3c(sc12)CCCC3        1.35

Now for the compound whose growth inhibition we want.
Look at this compound and give its reported growth inhibition. CC1=Nc2c([nH]c(=S)[nH]c2=O)NC(c2c(Cl)cccc2Cl)C1 (stereo not given)
34.6

---

protocol.text: NCI Yeast Anticancer Drug Screen. Data for the mec2-1 strain (AID 157)
run.conditions: S. cerevisiae mec2-1 strain, at 50.0 µM, stronger effect = higher value
The panel holds about 79,000 compounds, 15% with a hit somewhere; the sample as a whole holds those more often.
Property: growth inhibition; scope: individual compounds
Express it in %; write the number only.

# example entries with known answers
In [3]: df
Out[3]:
                                   compound  unit_symbol  test_value
0                           C=CCCCCCCCCCCCC            %           0
1  NC1CCCCC1N.O=NN1CCCCCC1(P(=O)([O-])[O-])P(=O)([O-])[O-].[Na+].[Pt+2]            %          20
2  CN(C(=O)C12C3C4C1C1C2C3C41C(N)=O)C(C)(C)C (stereo unspecified)            %         7.8

Look at this compound and give its reported growth inhibition. `CCN(CC)CCC(=O)O`
-19.4

Note, next up: `Cn1c(N)c(C(=O)/C=C/c2ccccc2)c(=O)n(C)c1=O`
-17.5

Note, next up: O=C(CCC(=O)OCC1CCCO1)OCC1CCCO1 (stereo unspecified)
2.45

---

Property: growth inhibition; scope: individual molecules
protocol.text: NCI Yeast Anticancer Drug Screen. Data for the mlh1 rad18 strain (AID 175)
run.conditions: S. cerevisiae mlh1 rad18 strain growth inhibition; at 50.0 µM; stronger effect = higher value
This is part of a sample that, as a whole, favours compounds with a hit. Of some 79,000 tested, about 15% had one in any assay. Activity calls are given as the source filed them. No stated cut-off is given here; in the data, active means growth inhibition above about 70%; inactive means the rest.

# example entries with known answers
>>> df
                                   molecule       assay_metric         test_value
0                  ClC(Cl)=C(Cl)C(Cl)(Cl)Cl  growth inhibition    5.4% (inactive)
1  COc1cc(OC(=O)/C=C2/CCC(=O)O2)c2c(c1)OC1OC(=O)CC21 (configuration not stated)  growth inhibition   15.8% (inactive)
2  CCOC(=O)COc1cc2c(cc1C(C)c1ccc(OCc3ccccc3)c(OC)c1)OCO2 (configuration not stated)  growth inhibition   -6.3% (inactive)
3  O=C1CC(c2ccccc2)OC(c2ccccc2Cl)C1 (configuration not stated)  growth inhibition    9.1% (inactive)
4  O=C1NC(c2ccccc2)(c2ccccc2)C(=O)N1CNc1ccccn1  growth inhibition   29.6% (inactive)
5     Cc1ccc(S(=O)(=O)CC(O)(C(C)C)C(C)C)cc1  growth inhibition  -17.4% (inactive)
6                               CCNC(=O)NCC  growth inhibition   -3.4% (inactive)
7                   Nc1cccc(C(=O)O)c1C(=O)O  growth inhibition   20.9% (inactive)
8  O=C(Oc1ccc(C(=O)c2ccc(C(=O)c3ccc(OC(=O)c4cccc(Br)c4)cc3)cc2)cc1)c1cccc(Br)c1  growth inhibition   2.15% (inactive)
9  C[N+]1(C)CC2C3C=C(I)C(C3)C2C1 (configuration not stated)  growth inhibition   26.1% (inactive)

Look at this molecule and give its reported growth inhibition. `Nc1ccc(CP(=O)(O)O)cc1`
24.9% (inactive)

Note, next up: `COc1ncnc2ncn(C)c12`
0.2% (inactive)

---

protocol.text: NCI Yeast Anticancer Drug Screen. Data for the rad50 strain (AID 155);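 note: 0% = growth of vehicle-only cultures of the same strain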
run.conditions: S. cerevisiae rad50 strain growth inhibition; at 50.0 µM; stronger effect = higher value
This is part of a sample that, as a whole, favours compounds with a hit. Of some 79,000 tested, about 15% had one in any assay.
Property: growth inhibition; scope: individual molecules
Express it in %; write the number only.

# example entries with known answers
                                   molecule       assay_metric  test_value
0      Cc1ccc(C(=O)c2c(C)cccc2C(=O)O)c(C)c1  growth inhibition       -0.95
1       CC/C(=N/Nc1cn[nH]c(=O)c1Cl)c1ccccc1  growth inhibition         4.6
2                    Ic1ccccc1/C=C/c1ccccn1  growth inhibition        14.6
3                              C=CC/C=C/CCC  growth inhibition        34.6
4                O=C(Nc1nc2ccsc2s1)c1ccccc1  growth inhibition       -15.8
5  Cc1cccc2c1Oc1ccccc1C2N1C(=O)c2ccccc2C1=O (stereo not drawn)  growth inhibition        6.65

Look at this molecule and give its reported growth inhibition. `CC(=O)N(C(=O)CC(=O)N/N=C\c1ccc(Br)c(N(CCC#N)CCC#N)c1)c1ccc(Cl)cc1`
7.7

Note, next up: `CC1=C[P+](c2ccccc2)(c2ccccc2)c2ccccc2O1`
58

Note, next up: CCOC(=O)C(C(=O)OCC)C(c1ccccc1)c1ccccc1OC (stereo not drawn)
6.9

Note, next up: COc1ccc(NC2CC(C)N(C(=O)c3ccccc3)O2)cc1 (stereo not drawn)
-42.1

Note, next up: `C/C(=N/NC(=S)N1CCCCCC1)c1ccccc1O`
-63.5

Note, next up: O=C(ON=C1c2ccccc2C(Br)C(Br)c2ccccc21)c1cc([N+](=O)[O-])cc([N+](=O)[O-])c1 (stereo not drawn)
15.8

Note, next up: OC(c1ccccc1)(C1CCNCC1)C1CC1 (stereo not drawn)
9.8

Note, next up: `N#CC1=CNc2ccccc2N=C1N`
8.55

Note, next up: `COc1ccc(CCNC(=O)CCc2ccccc2CO)cc1OC`
15.8

Note, next up: CC(CCC(=O)O)[C@H]1CCC2[C@@H]3C(=O)C[C@@H]4CC(O)CC[C@]4(C)C3CC[C@@]21C (stereo partly drawn)
38.8

Note, next up: CC1=Nc2c([nH]c(=S)[nH]c2=O)NC(c2c(Cl)cccc2Cl)C1 (stereo not drawn)
3.9

---

protocol.text: NCI Yeast Anticancer Drug Screen. Data for the rad50 strain (AID 155);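 note: 0% = growth of vehicle-only cultures of the same strain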
run.conditions: S. cerevisiae rad50 strain growth inhibition; at 50.0 µM; stronger effect = higher value
The panel holds about 79,000 compounds, 15% with a hit somewhere; the sample as a whole holds those more often.
assay.metric: growth inhibition (%)
Express it in %; write the number only.

compound	assay.metric	test.value
O=C1C=C(Cl)C(=O)O1	growth inhibition	8.85

Look at this compound and give its reported growth inhibition. `O=Cc1cccc2c([N+](=O)[O-])cccc12`
55.5

Note, next up: `O=C1c2c(F)c(F)c(F)c(F)c2SC2=Nc3cccc4cccc(c34)N12`
-17.5

---

Property: growth inhibition; scope: individual compounds
protocol.text: NCI Yeast Anticancer Drug Screen. Data for the mlh1 rad18 strain (AID 175)
run.conditions: S. cerevisiae mlh1 rad18 strain growth inhibition; at 50.0 µM; stronger effect = higher value
Procedure: Growth inhibition of yeast strains with defined genetic alterations is measured as a screen for potential anti-cancer activity. Selected strains with alterations in DNA damage repair or cell cycle control were exposed to compounds and growth inhibition was measured relative to vehicle treated controls. The strain used in this assay is mlh1 rad18
This is part of a sample that, as a whole, favours compounds with a hit. Of some 79,000 tested, about 15% had one in any assay. Where a SMILES comes first, the peptide text is derived from it. The star is where a group is joined. Cbz = O=C(OCc1ccccc1)*; OBn = c1ccc(CO*)cc1
Express it in %; write the number only.

In [3]: df
Out[3]:
                                   compound  unit_symbol  test_value
0  CC1(C)OCC(C2OC3OC(C)(C)OC3C2OP(=O)(N2CC2)N2CC2)O1 (centres undefined)            %       -73.4
1           Nc1nc(N)c(Nc2ccc(Cl)cc2)c(Cl)n1            %        50.5

Look at this compound and give its reported growth inhibition. `Cc1c(N)cc2c(c1[N+](=O)[O-])C(C)(C)CC2(C)C`
-0.85

Note, next up: NC(=O)CNc1ccc(CC2CCOC2=O)cc1 (centres undefined)
-5.7

Note, next up: `Cc1nc(C(N)=S)sc1C(=O)CC(=O)C(=O)Nc1ccc(Br)cc1`
-14.8

Note, next up: `O=C(Cn1c2c(c3ccccc31)CCCC2)N1CCOCC1`
-19.6

Note, next up: `CCCCCCCCCCCCCCOc1ccc2ccccc2c1`
-4

Note, next up: `O=C1c2c(F)c(F)c(F)c(F)c2SC2=Nc3cccc4cccc(c34)N12`
-37.8

Note, next up: CCCC(O)C(CC)[N+](=O)[O-] (centres undefined)
5.75

Note, next up: `CCC(=O)C1(N2CCOCC2)CCN(CCCC(=O)c2ccc(F)cc2)CC1`
22.1

Note, next up: `O=C1CN(c2cccc(C(F)(F)F)c2)C(=O)CN1/N=C/c1ccc(O)c(O)c1`
27.6

Note, next up: `NC(=O)N/N=C/c1ccc([N+](=O)[O-])s1`
-8.5

Note, next up: `Cc1nnc(-c2ccccc2)s1`
-7.45

Note, next up: `CC(C)(C)N=Cc1ccccc1[O-].CC(C)(C)N=Cc1ccccc1[O-].[Co+2]`
-5.85

Note, next up: `Cc1ccc(Oc2ccc(C(=O)c3cccc(C(=O)c4ccc(Oc5ccc(C)cc5)cc4)n3)cc2)cc1`
-24.9

Note, next up: `CN(C)/C(N)=N/S(=O)(=O)c1ccc(C#N)cc1`
2.45

Note, next up: CSCCC(N)C(=O)NCCS(=O)(=O)O (centres undefined)
8.25

Note, next up: `CSc1n[nH]c(SC)n1`
-5.9

Note, next up: `N=C(N)c1cccc(NC(=O)CCc2ccccc2)c1`
1.9

Note, next up: CCC(C)C/C(C)=N\NC(N)=O (centres undefined)
6.25

Note, next up: `COc1cc2c(cc1OC)-c1c(C)c3ccc(OC)c(NCCO)c3c[n+]1CC2`
-8.3

Note, next up: O=C(NC(CO)C(=O)N1CCCC1C(=O)OCc1ccccc1)OCc1ccccc1 (stereo not drawn) (Cbz-Ser-Pro-OBn; configuration not given here)
7.6

Note, next up: `CCSc1nc(N)c2c(-c3ccc(OC)c(OC)c3)c3c(nc2n1)CCCC3`
-25.4

Note, next up: O=C(N/N=C(\C1=Nc2ccc(Cl)cc2NC1O)C(O)/C=C/c1ccccc1)c1ccncc1 (centres undefined)
7.7
